Assay: clinical
Conditions: human, in vivo, Subject B, Urine Results
Readout: concentration at 6 day (µg/mL)
Numbers only; they are read as µg/mL.

Give me measured concentration at 6 day, please, for this compound: CN(C)CCOC(c1ccccc1)c1ccccc1 [Diphenhydramine]
663

###

Assay: clinical
Conditions: human, in vivo, Average of Urine Samples
Below, each entry is listed alongside its reported concentration at 2 day.
Numbers only; they are read as ng/mL.

O=C1O[C@H]([C@@H](O)CO)C(O)=C1O ... 2100
CNC(=C[N+](=O)[O-])NCCSCc1ccc(CN(C)C)o1 ... 3720
Cc1cc2nc3c(=O)[nH]c(=O)nc-3n(C[C@H](O)[C@H](O)[C@H](O)CO)c2cc1C ... 2490
CN(C)CCOC(c1ccccc1)c1ccccc1 [Diphenhydramine] ... 0

With those in mind, consider the next compound.
Give me measured concentration at 2 day, please, for this compound: `NC(N)=Nc1nc(CSCCC(N)=NS(N)(=O)=O)cs1`
0

###

Test: clinical
Settings: human, in vivo, Subject A, Urine Results
Readout: concentration at 1 day (ng/mL)
Numbers only; they are read as ng/mL.

# count of solved cases: 2
CNC(=C[N+](=O)[O-])NCCSCc1ccc(CN(C)C)o1 [Ranitidine] ... 0
NC(N)=Nc1nc(CSCCC(N)=NS(N)(=O)=O)cs1 [Famotidine] ... 0

Give me measured concentration at 1 day, please, for this compound: CN(C)CCOC(c1ccccc1)c1ccccc1 [Diphenhydramine]
0

###

Experiment: clinical
Conditions: human, in vivo, Subject C, Urine Results
Below, each entry is listed alongside its reported concentration at 5 day.
Numbers only; they are read as ng/mL.

O=C1O[C@H]([C@@H](O)CO)C(O)=C1O ... 5290
CN(C)CCOC(c1ccccc1)c1ccccc1 [Diphenhydramine] ... 0

Give me measured concentration at 5 day, please, for this molecule: `NC(N)=Nc1nc(CSCCC(N)=NS(N)(=O)=O)cs1`
3830

###

Experiment: Multiple Marker Experiment 2: urine samples, simulated non-adherence (one marker dose skipped per subject), LC-MS/MS
Conditions: human, in vivo
Readout: concentration at 3 day (ng/mL)
Numbers only; they are read as ng/mL.

Give me measured concentration at 3 day, please, for this compound: `COc1ccc2c(c1)[C@]13CCCC[C@@H]1[C@H](C2)N(C)CC3`
0

###

Test: clinical
Conditions: human, in vivo, Subject D, Urine Results
Readout: concentration at 5 day
Quote the value and follow it with the unit of measurement.

CN(C)CCOC(c1ccccc1)c1ccccc1 [Diphenhydramine] ... 0 ng/mL
NC(N)=Nc1nc(CSCCC(N)=NS(N)(=O)=O)cs1 ... 5050 ng/mL

With those in mind, consider the next molecule.
Give me measured concentration at 5 day, please, for this molecule: `O=C1O[C@H]([C@@H](O)CO)C(O)=C1O`
5020 ng/mL

###

Below, each entry is listed alongside its reported concentration at 4 day.
Test: clinical
Details: human, in vivo, Subject A, Urine Results
Text: All other markers were obtained from commercial sources. Urine and saliva were collected prior to each day's dosing of marker confirming the presence or absence of markers before the experiment started. […] The presence of all 7 markers at day 8 would confirm that all markers were ingested in the previous 7 day one week period. Healthy volunteers with no recent exposure to the markers who were not currently taking prescribed medications, OTC medications or vitamins and supplements were chosen. […]
Numbers only; they are read as µg/mL.

# count of solved cases: 2
CN(C)CCOC(c1ccccc1)c1ccccc1 [Diphenhydramine] ... 0
CNC(=C[N+](=O)[O-])NCCSCc1ccc(CN(C)C)o1 ... 0.0634

With those in mind, consider the next compound.
Give me measured concentration at 4 day, please, for this compound: `NC(N)=Nc1nc(CSCCC(N)=NS(N)(=O)=O)cs1`
0

###

Test: clinical
Settings: human, in vivo, 5 day
Readout: Subject D, Urine Results (ng/m)
Numbers only; they are read as ng/m.

CNC(=C[N+](=O)[O-])NCCSCc1ccc(CN(C)C)o1 ... 39.4
O=C1O[C@H]([C@@H](O)CO)C(O)=C1O ... 2268
CN(C)CCOC(c1ccccc1)c1ccccc1 [Diphenhydramine] ... 0
Cc1cc2nc3c(=O)[nH]c(=O)nc-3n(C[C@H](O)[C@H](O)[C@H](O)CO)c2cc1C ... 1730

With those in mind, consider the next molecule.
Give me measured Subject D, Urine Results, please, for this molecule: `NC(N)=Nc1nc(CSCCC(N)=NS(N)(=O)=O)cs1`
3820

###

Below, each entry is listed alongside its reported concentration at 2 day.
Experiment: Multiple Marker Experiment 1: urine samples, adherent with all markers, marker concentration by LC-MS/MS
Conditions: human, in vivo
Numbers only; they are read as ng/mL.

COc1ccc2c(c1)[C@]13CCCC[C@@H]1[C@H](C2)N(C)CC3 [DXM, Dextromethorphan] ... 0

With those in mind, consider the next compound.
Give me measured concentration at 2 day, please, for this compound: CN(C)C(=O)C(CCN1CCC(O)(c2ccc(Cl)cc2)CC1)(c1ccccc1)c1ccccc1 [Loperamide]
0
